Tested on: Escherichia coli TOP10
Experiment: shrunken log2 fold change of peptide-encoding DNA abundance (4.5 h post-induction vs induction); higher = less antimicrobial activity (less host growth inhibition)
Conditions: time post-induction: 4.5 h; library: site-saturation at positions 5, 18, 19, 20
# shrunken log2 fold change binned as A = under -0.2, B = from -0.2 up to 0.04, C = 0.04 and over

Hi, small favor: classify RRIRLRPPRLPRPRPRPSRDPRP by its shrunken log2 fold change when you get a moment. C

Class label required: RRIRLRPPRLPRPRPRPIMNPRP A

Which shrunken log2 fold change category applies to RRIRMRPPRLPRPRPRPMRGPRP here? C

The entry to classify is RRIRWRPPRLPRPRPRPYCRPRP ; which class holds it? A

# classify by shrunken log2 fold change band: RRIRNRPPRLPRPRPRPWHHPRP A

For RRIRDRPPRLPRPRPRPRELPRP , which shrunken log2 fold change bin applies? C

Category lookup for the sequence RRIRRRPPRLPRPRPRPQFRPRP B

Please report the category associated with RRIRERPPRLPRPRPRPQKMPRP , nothing else. A

Class? Entry: RRIRHRPPRLPRPRPRPDFRPRP B

Which class does RRIRTRPPRLPRPRPRPYMCPRP fall in? A

Band assignment needed for RRIRLRPPRLPRPRPRPVILPRP please. A

# bin lookup: classify RRIRQRPPRLPRPRPRPLTFPRP by its shrunken log2 fold change B

Which category fits this record: RRIRMRPPRLPRPRPRPIKLPRP C

Band of RRIRPRPPRLPRPRPRPAKKPRP ? C

# classify by shrunken log2 fold change band: RRIRKRPPRLPRPRPRPKKNPRP C

Tag the class for RRIRARPPRLPRPRPRPRVNPRP C

Pick a category. Item: RRIRVRPPRLPRPRPRPCLMPRP B

Looking at RRIRVRPPRLPRPRPRPKHMPRP , which class would you pick? A

Returns: class label. Input: RRIRTRPPRLPRPRPRPMYPPRP C

Would you mind sorting RRIRTRPPRLPRPRPRPHVFPRP into the appropriate category? B

Exercise: read the entry RRIRQRPPRLPRPRPRPHHWPRP and state which class it falls under. B

# bin label for RRIRFRPPRLPRPRPRPPGKPRP C

Which bin should I file RRIRFRPPRLPRPRPRPHMNPRP under? A

Band for the recorded shrunken log2 fold change of RRIRCRPPRLPRPRPRPIQVPRP ? B

Which category does the recorded shrunken log2 fold change put RRIRLRPPRLPRPRPRPMGLPRP in? B

For this sequence, which bin applies? RRIRLRPPRLPRPRPRPVNSPRP C

Looking at RRIRCRPPRLPRPRPRPEYGPRP , which class would you pick? B

Which class holds RRIRNRPPRLPRPRPRPGRYPRP ? B

Class (by measured shrunken log2 fold change) for RRIRWRPPRLPRPRPRPKRDPRP C

Band of RRIRKRPPRLPRPRPRPTKNPRP ? C

For RRIRERPPRLPRPRPRPGVGPRP , which shrunken log2 fold change bin applies? C

Would you mind sorting RRIRWRPPRLPRPRPRPPYYPRP into the appropriate category? B

Tag the class for RRIRLRPPRLPRPRPRPCYHPRP A

Category of RRIRNRPPRLPRPRPRPEMEPRP : B

Which bin, given its shrunken log2 fold change, does RRIRQRPPRLPRPRPRPWKEPRP occupy? B

Using the reported shrunken log2 fold change, which band applies to RRIRYRPPRLPRPRPRPIYMPRP ? A

Quick check: band for RRIRCRPPRLPRPRPRPPMPPRP C

Please indicate the class for RRIRERPPRLPRPRPRPNHGPRP based on its shrunken log2 fold change. A

// return the class label for RRIRHRPPRLPRPRPRPYAEPRP B

Into which category would you place RRIRNRPPRLPRPRPRPCCLPRP ? A

In plain terms, what class is RRIRARPPRLPRPRPRPTAWPRP ? C

Kindly identify the class of RRIRLRPPRLPRPRPRPHFLPRP . A

Band for the recorded shrunken log2 fold change of RRIRIRPPRLPRPRPRPFELPRP ? B

Please indicate the class for RRIRQRPPRLPRPRPRPVGPPRP based on its shrunken log2 fold change. C

Any idea which band RRIRPRPPRLPRPRPRPDMPPRP is in? A

Category lookup for the sequence RRIRTRPPRLPRPRPRPIIMPRP A

Form field 'band' for RRIRERPPRLPRPRPRPDLTPRP B

Which class is correct for the following sequence? RRIRRRPPRLPRPRPRPHALPRP B

Category of RRIRMRPPRLPRPRPRPCPWPRP : C

# classify by shrunken log2 fold change band: RRIRERPPRLPRPRPRPNEDPRP B

Entry RRIRARPPRLPRPRPRPVICPRP belongs to which category? C

Category of RRIRGRPPRLPRPRPRPCNTPRP : B

* * *

Consider the following sequences; for each one, report its shrunken log2 fold change.
Tested on: Escherichia coli TOP10
Assay: shrunken log2 fold change of peptide-encoding DNA abundance (4.5 h post-induction vs induction); higher = less antimicrobial activity (less host growth inhibition)
Details: time post-induction: 4.5 h; library: site-saturation at positions 5, 18, 19, 20
Lab note: record just the number, no unit beside it.

I am curious: what shrunken log2 fold change value has been reported for RRIRMRPPRLPRPRPRPPKMPRP ? 0.477

Consider the sequence shown here: RRIRQRPPRLPRPRPRPWQAPRP What is its recorded shrunken log2 fold change? 0.124

Quick check: shrunken log2 fold change of RRIRQRPPRLPRPRPRPFESPRP ? -0.00719

Would you kindly share the measured shrunken log2 fold change for RRIRGRPPRLPRPRPRPLQNPRP ? 0.693

Bench note: what shrunken log2 fold change did RRIRYRPPRLPRPRPRPFNNPRP show? 2.81

Which shrunken log2 fold change reading was recorded for the sequence RRIRARPPRLPRPRPRPKQYPRP ? -0.0335

Consider the sequence RRIRFRPPRLPRPRPRPNSTPRP and give its measured shrunken log2 fold change. -0.671

Could you share which shrunken log2 fold change value was measured for RRIRCRPPRLPRPRPRPLDIPRP ? -0.422

Dear colleague, I am looking for the recorded shrunken log2 fold change of the following sequence: RRIRERPPRLPRPRPRPNNFPRP -0.0786

What value of shrunken log2 fold change has been reported for the following sequence? RRIRHRPPRLPRPRPRPNTQPRP -0.248

Could you tell me which shrunken log2 fold change is on file for RRIRDRPPRLPRPRPRPMYAPRP ? 0.143

I am curious: what shrunken log2 fold change value has been reported for RRIRPRPPRLPRPRPRPLDWPRP ? 0.349

// lookup shrunken log2 fold change for RRIRDRPPRLPRPRPRPMYGPRP -0.0676

// lookup shrunken log2 fold change for RRIRDRPPRLPRPRPRPLLEPRP 0.31

Need shrunken log2 fold change, item RRIRERPPRLPRPRPRPQVTPRP -0.118

Please look up its shrunken log2 fold change: RRIRFRPPRLPRPRPRPVYDPRP -0.977

Which shrunken log2 fold change is listed for RRIRNRPPRLPRPRPRPPSWPRP ? 0.161

Sample RRIRHRPPRLPRPRPRPPHLPRP — what was its shrunken log2 fold change? 0.0576

Could you share which shrunken log2 fold change value was measured for RRIRTRPPRLPRPRPRPNVDPRP ? -0.625

For the sequence RRIRIRPPRLPRPRPRPCDNPRP , what shrunken log2 fold change is on record? -0.178

Would you kindly share the measured shrunken log2 fold change for RRIRWRPPRLPRPRPRPFIGPRP ? -0.38

Data request, read-out shrunken log2 fold change, for RRIRRRPPRLPRPRPRPWVYPRP 0.0234

Any idea what its shrunken log2 fold change is? The sequence is RRIRNRPPRLPRPRPRPTHMPRP 0.0687

Item RRIRHRPPRLPRPRPRPLGYPRP has what recorded shrunken log2 fold change? -0.0228

Bench note: what shrunken log2 fold change did RRIRTRPPRLPRPRPRPFGGPRP show? -0.0397

Record request: shrunken log2 fold change value, item RRIRFRPPRLPRPRPRPLYDPRP -0.358

Any idea what shrunken log2 fold change was measured for RRIRMRPPRLPRPRPRPYKNPRP ? -0.259

* * *

Assign shrunken log2 fold change to each entry below.
Test system: Escherichia coli TOP10;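 note: peptides expressed intracellularly from a pBAD plasmid library in pooled LB shake-flask culture, induced with 0.3% L-arabinose, DNA abundance read by NGS, three biological replicates, DESeq2 with apeglm shrinkage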
Assay: shrunken log2 fold change of peptide-encoding DNA abundance (4.5 h post-induction vs induction); higher = less antimicrobial activity (less host growth inhibition)
Details: time post-induction: 4.5 h; library: site-saturation at positions 5, 18, 19, 20
Just the number.

// shrunken log2 fold change lookup, key: RRIRMRPPRLPRPRPRPHYWPRP -0.121

I have this sequence here, RRIRDRPPRLPRPRPRPMLMPRP , and I need its recorded shrunken log2 fold change. 0.348

Dear colleague, I am looking for the recorded shrunken log2 fold change of the following sequence: RRIRPRPPRLPRPRPRPKHTPRP -0.198

What value of shrunken log2 fold change has been recorded for this entry: RRIRPRPPRLPRPRPRPGYPPRP -0.0289

# input sequence: RRIRQRPPRLPRPRPRPWPWPRP ; wanted: its shrunken log2 fold change 0.0839

Item under review: RRIRFRPPRLPRPRPRPMYIPRP . Reported shrunken log2 fold change? -1.09

// shrunken log2 fold change lookup, key: RRIRDRPPRLPRPRPRPKSVPRP 0.0458

What value of measured shrunken log2 fold change is listed for RRIRCRPPRLPRPRPRPTYGPRP ? -0.0844

Need shrunken log2 fold change of RRIRRRPPRLPRPRPRPAGLPRP , thanks. 0.153

Any idea what shrunken log2 fold change was measured for RRIRFRPPRLPRPRPRPRRQPRP ? 0.108

# shrunken log2 fold change lookup, item RRIRTRPPRLPRPRPRPPQGPRP 0.235

Can you look up the measured shrunken log2 fold change of RRIRIRPPRLPRPRPRPEEGPRP for me? -0.05

Record request: shrunken log2 fold change value, item RRIRGRPPRLPRPRPRPKKEPRP 0.042

Requested field: shrunken log2 fold change. Item: RRIRIRPPRLPRPRPRPEHTPRP -0.464

Can you look up the measured shrunken log2 fold change of RRIRPRPPRLPRPRPRPQVTPRP for me? -0.0231

Using the record for RRIRTRPPRLPRPRPRPMFPPRP , report its shrunken log2 fold change. 0.0617

So what's the measured shrunken log2 fold change for this one? RRIRHRPPRLPRPRPRPPHQPRP -0.151
